Molecular target: Bifunctional epoxide hydrolase 2 (Homo sapiens)
Sequence (P34913 whole entry): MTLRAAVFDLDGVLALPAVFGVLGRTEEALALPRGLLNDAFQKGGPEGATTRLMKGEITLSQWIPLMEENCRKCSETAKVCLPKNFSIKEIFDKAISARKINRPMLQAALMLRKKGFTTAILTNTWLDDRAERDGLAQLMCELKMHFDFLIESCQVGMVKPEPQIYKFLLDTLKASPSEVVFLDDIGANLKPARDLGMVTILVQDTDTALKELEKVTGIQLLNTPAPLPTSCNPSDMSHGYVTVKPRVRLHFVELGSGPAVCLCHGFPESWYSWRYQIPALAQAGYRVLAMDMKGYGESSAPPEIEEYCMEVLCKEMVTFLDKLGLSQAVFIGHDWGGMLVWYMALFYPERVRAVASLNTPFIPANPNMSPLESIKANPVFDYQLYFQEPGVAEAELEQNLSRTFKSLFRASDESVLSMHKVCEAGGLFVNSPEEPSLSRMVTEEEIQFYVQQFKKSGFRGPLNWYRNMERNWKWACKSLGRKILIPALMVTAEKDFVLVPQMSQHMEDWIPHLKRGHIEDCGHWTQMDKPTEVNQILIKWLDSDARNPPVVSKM
Assay: Inhibition of recombinant human soluble epoxide hydrolase using CMNPC as substrate preincubated for 5 mins followed by substrate addition measured at 5 mins post substrate addition by fluorescence assay in presence of 1 mg/mL BSA
ASSAY_ENDPOINT: pIC50
Note on pIC50: it is the negative log10 of concentration, concentration in mol/L.

Solved entries (count: 4):
{"columns": ["COMPOUND", "pIC50"],
 "data": [
  ["O=C(NC12CC3CC(CC(C3)C1)C2)NC12CC3CC(CC(C3)C1)C2", 8.89],
  ["O=C(NCCCCCCNC(=O)NCC12CC3CC(CC(C3)C1)C2)NCC12CC3CC(CC(C3)C1)C2", 9.15],
  ["CC(NC(=O)NCCCCNC(=O)NC(C)C12CC3CC(CC(C3)C1)C2)C12CC3CC(CC(C3)C1)C2 (stereo not given)", 8.60],
  ["O=C(NCCCCCCCCNC(=O)NC1C2CC3CC(C2)CC1C3)NC1C2CC3CC(C2)CC1C3 (stereo not given)", 8.39]
]}

// below: pIC50 requested for another compound
Entry CC(NC(=O)NCCCCCCCCNC(=O)NC(C)C12CC3CC(CC(C3)C1)C2)C12CC3CC(CC(C3)C1)C2 (stereo not given) has what pIC50?
9.10
